All values here come from PubChem BioAssay (NCATS).

Assay: qHTS for differential inhibitors of proliferation of Plasmodium falciparum line D10 (AID 1877);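 further: parasites grown with compound for 72 h before DNA staining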
Conditions: series mostly up to 28.7 µM
Inconclusive results are not listed. Active and inactive are the calls of the source. The call rests on the fitted dose curve; in most records, active means well fitted curve in the direction sought with a large enough effect; inconclusive means small, poorly fitted or top-dose-only effect, or another doubt; inactive means no such curve, though single readings can be large or run the other way.
Tick one outcome: yes (1) = active, no (0) = inactive

COC(=O)c1c(C)[nH]c(C)c1C(=O)c1ccccc1Cc1ccccc1 ... yes (1)
CCN1/C(=C/C(C)=O)Sc2ccc(OC)cc21 ... no (0)

Continue with the next compound.
[in] Per the assay record, what outcome was assigned to "CC[C@@H](C)[C@H]1O[C@]2(CC[C@@H]1C)C[C@@H]1C[C@@H](C/C=C(\C)[C@@H](O[C@H]3C[C@H](OC)[C@@H](O[C@H]4C[C@H](OC)[C@@H](O)[C@H](C)O4)[C@H](C)O3)[C@@H](C)/C=C/C=C3\CO[C@@H]4[C@H](O)C(C)=C[C@@H](C(=O)O1)[C@]34O)O2" ?
[out] yes (1)

* * *

Assay: qHTS for differential inhibitors of proliferation of Plasmodium falciparum line W2 (AID 1883);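 further: parasites grown with compound for 72 h before lysis and staining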
Settings: Plasmodium falciparum W2 proliferation inhibition; series mostly up to 28.7 µM
Records with an inconclusive call do not appear. Activity calls are given as the source filed them. The call rests on the fitted dose curve; in most records, active means well fitted curve in the direction sought with a large enough effect; inconclusive means small, poorly fitted or top-dose-only effect, or another doubt; inactive means no such curve, though single readings can be large or run the other way.
Tick one outcome: active, inactive

[in] Per the assay record, what outcome was assigned to "CC(C)(C)c1ccc(S(=O)(=O)/C=C/C#N)cc1" ?
[out] active

* * *

Experiment: qHTS for differential inhibitors of proliferation of Plasmodium falciparum line HB3 (AID 1886);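 further: parasites grown with compound for 72 h before SYBR Green readout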
Conditions: Plasmodium falciparum HB3 proliferation inhibition; series mostly up to 28.7 µM
Inconclusive results are not listed. Activity calls are given as the source filed them. Calls follow the shape of the dose curve; as a rule, active = well fitted curve in the direction sought with a large enough effect; inconclusive = small, poorly fitted or top-dose-only effect, or another doubt; inactive = no such curve, though single readings can be large or run the other way.
Tick one outcome: label 1 (active), label 0 (inactive)

Some solved entries appear below for comparison.
N#C/C(=C\c1ccc(O)c(O)c1)C(=O)c1ccc(O)c(O)c1 ... label 1
O=c1[nH]c2cc(C(F)(F)F)ccc2n1-c1cc(C(F)(F)F)ccc1O ... label 1
C[N+](C)(CCCCCC[N+](C)(C)CCCN1C(=O)c2cccc3cccc(c23)C1=O)CCCN1C(=O)c2cccc3cccc(c23)C1=O ... label 1
NC(CCCP(=O)(O)O)C(=O)O (stereo not drawn) ... label 0
N[C@@H](CC(=O)O)C(=O)O ... label 0
NCCNC(=O)c1ncsc1-c1cccc(F)c1 ... label 0
C[C@@H](NC(=O)/C(C#N)=C/c1ccc(O)c(O)c1)c1ccccc1 ... label 1
CCCCCCCCCCCCCCCCCCNC(=O)OCC(COP(=O)([O-])OCC[n+]1ccsc1)OC (stereo not drawn) ... label 1
CN1CCc2cc(O)c(O)cc2C(c2ccccc2)C1 (stereo not drawn) ... label 1
CC1(C)CCC=[N+]1[O-] ... label 0

[in] Per the assay record, what outcome was assigned to "O=C(O)c1cc(=O)c2ccccc2[nH]1" ?
[out] label 0

[in] Field entry: "Oc1cc(O)cc(/C=C/c2ccc(O)c(O)c2)c1"
[out] label 1

[in] Field entry: CN(C)CCC(c1ccc(Cl)cc1)c1ccccn1 (stereo not drawn)
[out] label 0

[in] Field entry: "O=c1[nH]c2cc([N+](=O)[O-])c([N+](=O)[O-])cc2[nH]c1=O"
[out] label 0

[in] Field entry: COc1cc2nc(N3CCN(C(=O)OCc4ccccc4)C(C(=O)NC(C)(C)C)C3)nc(N)c2cc1OC (stereo not drawn)
[out] label 1

[in] Field entry: CC(C)NCC(O)COc1cccc2ccccc12 (stereo not drawn)
[out] label 1

[in] Field entry: "CCCCCCCC/C=C\CCCCCCCC(=O)NCCO"
[out] label 1

[in] Field entry: CN1CCc2cccc3c2C1Cc1ccc(O)c(O)c1-3 (stereo not drawn)
[out] label 1

[in] Field entry: "N=C(N)SCCc1ccc(CCSC(=N)N)cc1"
[out] label 0

[in] Field entry: "c1cnc2c(c1)ccc1cccnc12"
[out] label 1

[in] Field entry: S=C(S)OC1CC2CC1C1CCCC21 (stereo not drawn)
[out] label 0

[in] Field entry: "N#C/C(=C\c1ccc(O)c(O)c1)C(=O)NCCCc1ccccc1"
[out] label 1

[in] Field entry: "CC(C)Cc1ccc([C@H](C)C(=O)O)cc1"
[out] label 0

[in] Field entry: "N#C/C(=C\c1ccc(O)c(O)c1)C(=O)NCc1ccccc1"
[out] label 1
